- TARGET_OR_SYSTEM: Genome polyprotein (dengue virus type 2)
- Sequence (P29990 2492-3391 limits assumed): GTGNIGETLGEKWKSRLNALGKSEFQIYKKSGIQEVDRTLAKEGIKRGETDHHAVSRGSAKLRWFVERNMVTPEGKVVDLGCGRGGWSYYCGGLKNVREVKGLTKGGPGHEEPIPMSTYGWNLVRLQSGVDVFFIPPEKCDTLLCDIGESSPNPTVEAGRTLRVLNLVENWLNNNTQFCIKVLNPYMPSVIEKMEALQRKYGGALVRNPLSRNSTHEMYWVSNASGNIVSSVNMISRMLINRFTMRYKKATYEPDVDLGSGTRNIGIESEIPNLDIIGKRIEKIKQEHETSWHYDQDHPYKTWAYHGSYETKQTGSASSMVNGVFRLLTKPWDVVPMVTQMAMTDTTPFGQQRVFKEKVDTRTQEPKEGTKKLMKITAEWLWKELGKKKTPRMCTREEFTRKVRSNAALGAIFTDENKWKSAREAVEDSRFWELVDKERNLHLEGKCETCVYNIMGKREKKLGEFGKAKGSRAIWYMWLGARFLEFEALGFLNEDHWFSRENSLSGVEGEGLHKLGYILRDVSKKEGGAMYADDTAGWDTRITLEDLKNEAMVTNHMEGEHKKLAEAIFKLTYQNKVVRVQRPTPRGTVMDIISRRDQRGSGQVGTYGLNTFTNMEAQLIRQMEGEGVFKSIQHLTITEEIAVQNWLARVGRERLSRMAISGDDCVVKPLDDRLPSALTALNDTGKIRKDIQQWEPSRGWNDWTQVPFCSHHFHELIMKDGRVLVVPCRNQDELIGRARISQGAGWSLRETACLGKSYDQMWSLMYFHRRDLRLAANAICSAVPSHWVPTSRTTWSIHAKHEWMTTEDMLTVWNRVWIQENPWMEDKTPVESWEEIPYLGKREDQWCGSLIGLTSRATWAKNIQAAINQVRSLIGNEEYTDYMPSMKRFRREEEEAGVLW
- PROTOCOL: Dengue-2 NS5 methyltransferase inhibitors, primary screen, biochemical, confirmation dose response (AID 588689)
- Assay type: functional
Active and inactive are the calls of the source. How the calls were made is not given here.
MEASURE_NAME: IC50

SMI	RESULT
Cc1[nH]n(-c2ccccc2)c(=O)c1C(c1ccc([N+](=O)[O-])cc1)c1c(C)[nH]n(-c2ccccc2)c1=O	33.2 µM (active)
COc1cc(C=C2C(=O)NC(=O)NC2=O)ccc1OS(=O)(=O)c1ccccc1[N+](=O)[O-]	37.7 µM (active)
COC(=O)Cn1cc(C=C2C(=O)NC(=O)NC2=O)c2ccccc21	25.7 µM (active)
